Reference source: patent US20220403048A1

Biological target: T1, recombinant human trimeric ARG2 enzyme (construct not given) (human, UniProt P78540 23-354)
T1 sequence (looked up): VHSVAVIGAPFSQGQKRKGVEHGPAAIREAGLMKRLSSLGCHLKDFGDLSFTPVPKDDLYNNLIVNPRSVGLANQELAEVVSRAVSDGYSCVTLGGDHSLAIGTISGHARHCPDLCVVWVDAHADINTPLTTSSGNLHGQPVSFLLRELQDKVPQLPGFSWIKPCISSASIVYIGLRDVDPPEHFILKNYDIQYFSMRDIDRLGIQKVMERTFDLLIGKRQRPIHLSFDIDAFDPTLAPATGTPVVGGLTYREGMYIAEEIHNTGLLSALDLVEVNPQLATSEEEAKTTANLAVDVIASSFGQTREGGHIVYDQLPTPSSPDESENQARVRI
Assay: cell-based or functional assay
# Trimeric human ARG2 EIA IC50 annotations
State just the number; it will be interpreted in nM.

Worked cases, Trimeric human ARG2 EIA IC50 given:
INSERT INTO assay_data (binder, unit_info, reported_measurement) VALUES
  ('C0021118 scFv (scFv, V domains shown, scFv) VH: EVQLLESGGGLVQPGGSLRLSCAASGFTFSSYAMSWVRQAPGKGLEWVSASLTNPGSTYYADSVKGRFTISRDNSKNTLYLQMNSLRAEDTAVYYCARLRADLGLYMDLWGRGTLVTVSS VL: QSVLTQPPSVSAAPGQKVTISCSGSSSNIGNHYVSWYQQLPGTAPKLLIYDNSERPSGIPDRFSGSKSGTSATLGITGLQTGDEADYYCATYDTNLSALVFGGGTKLTVL', 'nM', 84.1),
  ('C0021096 scFv (scFv, V domains shown, scFv) VH: EVQLLESGGGLVQPGGSLRLSCAASGFTFSSYAMSWVRQAPGKGLEWVSAISGYSGYYADSVKGRFTISRDNSKNTLYLQMNSLRAEDTAVYYCARLRADLGLYMDLWGRGTLVTVSS VL: QSVLTQPPSVSAAPGQKVTISCSGSSSNIGNHYVSWYQQLPGTAPKLLIYNTERRMSGIPDRFSGSKSGTSATLGITGLQTGDEADYYCGTWDSSLSALVFGGGTKLTVL', 'nM', 57.8);

With those in mind, consider the next binder.
Can you share its Trimeric human ARG2 EIA IC50? I mean this binder: C0021128 scFv (scFv, V domains shown, scFv) VH: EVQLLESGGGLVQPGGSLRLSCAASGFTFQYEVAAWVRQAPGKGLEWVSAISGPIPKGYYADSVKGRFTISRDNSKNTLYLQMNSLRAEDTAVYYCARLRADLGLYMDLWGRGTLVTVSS VL: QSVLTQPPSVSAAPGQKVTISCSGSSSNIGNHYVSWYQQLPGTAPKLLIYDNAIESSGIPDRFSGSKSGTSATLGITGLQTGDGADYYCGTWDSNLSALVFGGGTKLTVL
169
